Experiment: Cytotoxicity against human 2B cells incubated for 2 days by MTT assay
Format: cell-based
Conditions: 48 h
Where a SMILES comes first, the peptide text is derived from it. The star is where a group is joined. Octanoyl = CCCCCCCC(=O)*; Hexanoyl = CCCCCC(=O)*
METRIC: IC50

Count: 5. Required value per item: IC50.
1. CCCCCC(=O)N[C@H](C(=O)N[C@@H](Cc1ccccc1)C(=O)N[C@@H](CCC(=O)O)C(=O)N[C@H](C(=O)N[C@@H](C)C(=O)N[C@@H](CC(C)C)C(=O)O)[C@@H](C)CC)C(C)C (Hexanoyl-VFEIAL-OH)
2. CCCCCCCC(=O)N[C@H](C(=O)N[C@@H](Cc1ccccc1)C(=O)N[C@@H](CCC(=O)O)C(=O)N[C@H](C(=O)NCC(=O)N[C@H](C(=O)O)[C@@H](C)CC)[C@@H](C)CC)C(C)C (Octanoyl-VFEIGI-OH)
3. CCCCCCCC(=O)N[C@H](C(=O)N[C@@H](Cc1ccccc1)C(=O)N[C@@H](CCC(=O)O)C(=O)N[C@H](C(=O)O)[C@@H](C)CC)C(C)C (Octanoyl-VFEI-OH)
4. CCCCCCCC(=O)N[C@H](C(=O)N[C@@H](Cc1ccccc1)C(=O)N[C@@H](CCC(=O)O)C(=O)N[C@@H](CC(C)C)C(=O)O)C(C)C (Octanoyl-VFEL-OH)
5. CCCCCCCC(=O)N[C@H](C(=O)N[C@@H](Cc1ccccc1)C(=O)O)C(C)C (Octanoyl-Val-Phe-OH)

1: > 40 µM; 2: > 40 µM; 3: > 40 µM; 4: > 40 µM; 5: > 40 µM

Record CCCCCCCC(=O)N[C@H](C(=O)N[C@@H](Cc1ccccc1)C(=O)N[C@@H](CCC(=O)O)C(=O)N[C@H](C(=O)N[C@@H](C)C(=O)N[C@@H](CC(C)C)C(=O)O)[C@@H](C)CC)C(C)C (Octanoyl-VFEIAL-OH) . Reported IC50: > 40 µM

###

Tested on: Aspergillus fumigatus
Assay: Antimicrobial activity against Aspergillus fumigatus incubated for 24 hrs by Kirby-Bauer disk diffusion method
Format: functional
Where a SMILES comes first, the peptide text is derived from it. The star is where a group is joined. Octanoyl = CCCCCCCC(=O)*; Hexanoyl = CCCCCC(=O)*
METRIC: MIC

Study these solved cases before continuing.
COMPOUND: CCCCCCCC(=O)N[C@H](C(=O)N[C@@H](Cc1ccccc1)C(=O)N[C@@H](CCC(=O)O)C(=O)N[C@H](C(=O)N[C@@H](C)C(=O)N[C@@H](CC(C)C)C(=O)O)[C@@H](C)CC)C(C)C (Octanoyl-VFEIAL-OH)
OBSERVED MEASUREMENT: > 100 µM
//
COMPOUND: CCCCCC(=O)N[C@H](C(=O)N[C@@H](Cc1ccccc1)C(=O)N[C@@H](CCC(=O)O)C(=O)N[C@@H](CC(C)C)C(=O)N[C@@H](C)C(=O)N[C@@H](CC(C)C)C(=O)O)C(C)C (Hexanoyl-VFELAL-OH)
OBSERVED MEASUREMENT: > 100 µM

Record CCCCCC(=O)N[C@H](C(=O)N[C@@H](Cc1ccccc1)C(=O)O)C(C)C (Hexanoyl-Val-Phe-OH) . Reported MIC: > 100 µM

###

Kindly supply the reported MIC values for the records listed here.
Test system: Aspergillus fumigatus
Experiment: Antimicrobial activity against Aspergillus fumigatus incubated for 24 hrs by Kirby-Bauer disk diffusion method
Assay type: functional
Where a SMILES comes first, the peptide text is derived from it. The star is where a group is joined. Octanoyl = CCCCCCCC(=O)*; Hexanoyl = CCCCCC(=O)*

Study these solved cases before continuing.
COMPOUND: CCCCCC(=O)N[C@H](C(=O)N[C@@H](Cc1ccccc1)C(=O)N[C@@H](CCC(=O)O)C(=O)N[C@@H](CC(C)C)C(=O)N[C@@H](C)C(=O)N[C@H](C(=O)O)[C@@H](C)CC)C(C)C (Hexanoyl-VFELAI-OH)
MIC: > 100 µM
--
COMPOUND: CCCCCCCC(=O)N[C@H](C(=O)N[C@@H](Cc1ccccc1)C(=O)N[C@@H](CCC(=O)O)C(=O)N[C@H](C(=O)N[C@@H](C)C(=O)N[C@H](C(=O)O)[C@@H](C)CC)[C@@H](C)CC)C(C)C (Octanoyl-VFEIAI-OH)
MIC: > 100 µM
--
COMPOUND: CCCCCCCC(=O)N[C@H](C(=O)N[C@@H](Cc1ccccc1)C(=O)O)C(C)C (Octanoyl-Val-Phe-OH)
MIC: > 100 µM
--
COMPOUND: CCCCCCCC(=O)N[C@H](C(=O)N[C@@H](Cc1ccccc1)C(=O)N[C@@H](CCC(=O)O)C(=O)N[C@H](C(=O)NCC(=O)N[C@H](C(=O)O)[C@@H](C)CC)[C@@H](C)CC)C(C)C (Octanoyl-VFEIGI-OH)
MIC: > 100 µM

Record CCCCCCCC(=O)N[C@H](C(=O)N[C@@H](Cc1ccccc1)C(=O)N[C@@H](CCC(=O)O)C(=O)N[C@@H](CC(C)C)C(=O)O)C(C)C (Octanoyl-VFEL-OH) . Reported MIC: > 100 µM
